meta.source: patent US20110059889A1

Tested System: T1, soluble human FcRn (shFcRn) (human, UniProt P55899 24-297; P61769 21-119)
T1 construct: Biotinylated for the ELISA, amine-coupled to a CM5 chip for SPR; also called biotinylated shFcRn
T1 sequence (P55899 24-297 limits assumed, chain 1 of 2): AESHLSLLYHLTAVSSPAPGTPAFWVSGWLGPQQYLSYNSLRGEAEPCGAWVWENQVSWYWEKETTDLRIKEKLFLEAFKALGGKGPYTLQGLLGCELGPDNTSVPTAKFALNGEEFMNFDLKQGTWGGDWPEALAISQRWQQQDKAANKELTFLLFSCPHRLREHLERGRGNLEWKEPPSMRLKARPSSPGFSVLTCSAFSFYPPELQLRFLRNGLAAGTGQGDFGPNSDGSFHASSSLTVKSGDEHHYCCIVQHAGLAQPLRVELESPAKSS
T1 sequence (P61769 21-119 limits assumed, chain 2 of 2): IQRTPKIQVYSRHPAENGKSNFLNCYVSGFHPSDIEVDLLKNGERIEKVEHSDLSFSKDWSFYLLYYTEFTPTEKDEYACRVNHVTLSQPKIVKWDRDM
Method Description: IgG competition ELISA
Bridge positions count the residues as written; N and C are the ends. Square brackets hold non-standard residues; d marks the D form. Ends that are not written are not given here. Dip = N[C@H](C(=O)O)C(c1ccccc1)c1ccccc1; Phe(2-Cl) = N[C@@H](Cc1ccccc1Cl)C(=O)O; Pen = CC(C)(S)[C@H](N)C(=O)O
Measure: IC50 (µM)

RF[Pen]TGH[Phe(2-Cl)]GGLYPC-NH2 (disulfide 3-13; N-terminus assumed; SMILES CC(C)C[C@@H]1NC(=O)CNC(=O)CNC(=O)[C@H](Cc2ccccc2Cl)NC(=O)[C@H](Cc2c[nH]cn2)NC(=O)CNC(=O)[C@H]([C@@H](C)O)NC(=O)[C@@H](NC(=O)[C@H](Cc2ccccc2)NC(=O)[C@@H](N)CCCNC(=N)N)C(C)(C)SSC[C@@H](C(N)=O)NC(=O)[C@@H]2CCCN2C(=O)[C@H](Cc2ccc(O)cc2)NC1=O) [Peptide No. 221] | 4
RF[Pen]TGH[Dip]GGLYPC-NH2 (disulfide 3-13; N-terminus assumed; SMILES CC(C)C[C@@H]1NC(=O)CNC(=O)CNC(=O)[C@H](C(c2ccccc2)c2ccccc2)NC(=O)[C@H](Cc2c[nH]cn2)NC(=O)CNC(=O)[C@H]([C@@H](C)O)NC(=O)[C@@H](NC(=O)[C@H](Cc2ccccc2)NC(=O)[C@@H](N)CCCNC(=N)N)C(C)(C)SSC[C@@H](C(N)=O)NC(=O)[C@@H]2CCCN2C(=O)[C@H](Cc2ccc(O)cc2)NC1=O) [Peptide No. 224] | 32
QRF[Pen]TGHFGGLYPCNGP-NH2 (disulfide 4-14; N-terminus assumed; SMILES CC(C)C[C@@H]1NC(=O)CNC(=O)CNC(=O)[C@H](Cc2ccccc2)NC(=O)[C@H](Cc2c[nH]cn2)NC(=O)CNC(=O)[C@H]([C@@H](C)O)NC(=O)[C@@H](NC(=O)[C@H](Cc2ccccc2)NC(=O)[C@H](CCCNC(=N)N)NC(=O)[C@@H](N)CCC(N)=O)C(C)(C)SSC[C@@H](C(=O)N[C@@H](CC(N)=O)C(=O)NCC(=O)N2CCC[C@H]2C(N)=O)NC(=O)[C@@H]2CCCN2C(=O)[C@H](Cc2ccc(O)cc2)NC1=O) [Peptide No. 32] | 2
QRFCTGHXGGLYPCNGP (Pen 4; 2-pyridylalanine 8; disulfide 4-14; C-terminal amide) [Peptide No. 58] | 90
QRFCTGHXGGLYPCNGP (Pen 4; 2-napthylalanine 8; disulfide 4-14; C-terminal amide) [Peptide No. 62] | 90
